// provenance: PubChem BioAssay (NCI)

# Tested on: HCC-2998 colon
# Assay Details: NCI tumour cell line growth inhibition, 48 h
Outcome Measure: log10(TGI) (log10 of the value in µM)

1) CCN(CC)CCNc1ccc(N=Nc2ccc(S(N)(=O)=O)cc2)c2ccccc12	1.46
2) COC(=O)C(Cc1ccccc1)NC(=O)CNC(=O)CSc1nnc(COc2ccc(Cl)cc2)n1-c1ccccc1 (centres undefined)	1.39
3) CC1(C)C(=O)/C(=C\c2ccco2)C[C@]2(C)[C@H]3CC=C4[C@@H]5C[C@](C)(C(=O)O)CC[C@]5(C)CC[C@@]4(C)[C@]3(C)CC[C@@H]12	1.39
4) Brc1ccc2c(c1)C1=C(CO2)Cc2ccccc2O1	1.51
5) COC(=O)c1c(O)ccc2c1c1c(n2C)C(=O)c2ccccc2C1=O	1.69
6) C=C(CNCCO)[C@@H]1CC[C@]2(CO)CC[C@]3(C)[C@H](CC[C@@H]4[C@@]5(C)CCC(NCCc6ccc(O)cc6)C(C)(C)[C@@H]5CC[C@]43C)[C@@H]12 (some centres undefined)	0.16
7) NC(N)=N/N=C/c1c(-c2cc(Cl)sc2Cl)nc2n1CCS2	1.10
8) CC[C@@]1(OC(=O)CCC(=O)O)C(=O)OCc2c1cc1n(c2=O)Cc2cc3ccccc3nc2-1	0.63

* * *

# Test system: SF-539 CNS
# Assay Details: NCI tumour cell line growth inhibition, 48 h
Outcome Measure: TGI (µM)

1) CC(Nc1cc(Cl)cc(Cl)c1)c1ccncc1 (stereo unspecified)	40.8
2) COc1cc2c(cc1OCCCC(=O)Nc1cc(C(=O)Nc3cc(C(=O)NCCCN(C)C)n(C)n3)n(C)n1)N=CC1CCCN1C2=O (stereo unspecified)	44.1
3) c1ccc(COc2ccc3[nH]c4c(ncc5[nH]c6ccccc6c54)c3c2)cc1	29.4

* * *

# System: MCF7 breast
Classes used: label 1 for active, label 0 for inactive

1) COc1ccc(-c2cn3ccnc3c(-c3ccc4ncn(C5CCCCC5)c4c3)n2)cc1	label 0
2) CCN(CC)CC(C)Nc1ccc(C)c2sc3ccccc3c(=O)c12 (centres undefined)	label 0
3) CN(C)CCNc1cccc2sc3ccc(O)cc3c(=O)c12	label 0
4) O=C(N/N=C/c1ccc(F)cc1)c1[nH]c2ccc(I)cc2c1-c1ccccc1	label 1

* * *

# Tested on: MDA-N
# Assay Details: NCI tumour cell line growth inhibition, 48 h
Outcome Measure: TGI

1) Cc1cc2ccccc2c[n+]1CC(=O)CC([O-])(C(F)(F)F)C(F)(F)F	> 100 µM
2) Cn1c(N/N=C/c2ccc(Cl)cc2)nc(-c2ccc(Cl)cc2)c(C#N)c1=O	> 100 µM
3) O=C(CSC1=NCCN1)c1ccccc1	> 100 µM

* * *

Observed GI50 for TK-10 renal, reported per entry below.
Outcome Measure: GI50

1. O=C(N/N=C/c1ccc(F)cc1)c1[nH]c2ccc(I)cc2c1-c1ccccc1	19700 nM
2. O=C(/C=C/c1ccc([N+](=O)[O-])o1)NNC(=O)c1cc2ccccc2cc1O	2900 nM
3. COc1ccc(-c2cn3ccnc3c(-c3ccc4ncn(C5CCCCC5)c4c3)n2)cc1	2990 nM

* * *

# System: EKVX NSCLC
# Assay Details: NCI tumour cell line growth inhibition, 48 h
Label rule met when TGI is at or above 10 µM; anything below gets rule not met.

1) O=C1Cc2c(-c3ccccc3)cc(-c3cccc(Cl)c3)nc2-c2ccccc2N1	rule met
2) CCc1ccc(C2=C(O)C(=O)C(c3ccc(CC)cc3)=C(O)C2=O)cc1	rule not met
3) C=C(CNCCO)[C@@H]1CC[C@]2(CO)CC[C@]3(C)[C@H](CC[C@@H]4[C@@]5(C)CCC(NCCc6ccc(O)cc6)C(C)(C)[C@@H]5CC[C@]43C)[C@@H]12 (some centres undefined)	rule not met
4) Cc1ccc2c3c1O[C@H]1c4nc5ccccc5cc4C[C@@]4(O)[C@@H](C2)N(CC2CC2)CC[C@]314	rule met
5) Cc1cc2ccccc2c[n+]1CC(=O)CC([O-])(C(F)(F)F)C(F)(F)F	rule met
6) c1ccc2c(c1)SC1Sc3ccccc3[S+]21 (centres undefined)	rule met
7) CCOC(OC1=C(C#N)CCC1)C(CC)[Se]c1ccccc1 (centres undefined)	rule met
8) Cn1cnc([N+](=O)[O-])c1Sc1ncnc2nc[nH]c12	rule met
9) CCCCNC(=S)Nc1nc(C(=O)NNS(=O)(=O)c2ccccc2)cs1	rule met
10) O=C1c2cccc3cc([N+](=O)[O-])cc(c23)C(=O)N1CCCN1CCN(CCCN2C(=O)c3cccc4cc([N+](=O)[O-])cc(c34)C2=O)CC1	rule met
11) Cc1nc2c(Br)cc(Br)cc2c(=O)n1-c1ccccc1N	rule met
12) CCCN(CCC)c1c([N+](=O)[O-])cc(S(N)(=O)=O)cc1[N+](=O)[O-]	rule met
13) c1ccc2c(NCCCCCCCCNc3c4ccccc4nc4ccccc34)c3ccccc3nc2c1	rule not met
14) O=c1c(OC/C(=N/O)c2ccccc2)c(-c2ccccc2)oc2ccccc12	rule met
15) COc1ccc(CNc2nc3ccccc3nc2-c2cccs2)cc1	rule met
16) O=C(O)c1[nH]c(C(=O)O)c(CC(F)(F)C(F)(F)C(F)(F)F)c1CC(F)(F)C(F)(F)C(F)(F)F	rule met
17) COc1cc2ccc3c4cc(OC)c(OCc5ccccc5)cc4cnc3c2cc1OC	rule met
18) COc1cc2c(cc1OCCCC(=O)Nc1cc(C(=O)Nc3cc(C(=O)NCCCN(C)C)n(C)n3)n(C)n1)N=CC1CCCN1C2=O (centres undefined)	rule met
19) O=C(O)C(Cc1ccc(O)c([N+](=O)[O-])c1)N1C(=O)c2ccccc2C1=O (centres undefined)	rule met
20) Cn1cc(NC(=O)c2cc(NC(=O)CCCCCC(=O)Nc3cc(C(=O)Nc4cc(C(=O)NCCC(=N)N)n(C)c4)n(C)c3)cn2C)cc1C(=O)NCCC(=N)N	rule met
21) Cc1nnc2c3c(-c4ccccc4)c(-c4ccccc4)oc3nc(N(C)C)n12	rule met
22) O=C(O)C(Cc1cccs1)C(=O)O	rule met
23) [Cl][Sn]([c]1ccccc1)[c]1ccccc1	rule met
24) CN(C)Cc1cc(C(=O)/C=C/c2ccc(/C=C/C(=O)c3cc(CN(C)C)c(O)c(CN(C)C)c3)cc2)cc(CN(C)C)c1O	rule met
25) S=C1CC(c2ccc(Cl)cc2)Sc2ccccc2N1 (centres undefined)	rule met
26) O=C(O)c1nnsc1COCc1ccccc1	rule met
27) Nc1ncnc2c1ncn2C1OC(C(=O)O)C(O)C1O (centres undefined)	rule met
28) COc1cccc2c(=O)c3c(sc12)c(NCCCN)nc1ccccc13	rule not met
29) Cc1ccc(-c2cc3nc(-c4ccccc4)nc(C(Cl)Cl)n3n2)cc1	rule not met
